For each entry below, report its NPY2R pEC50 value.
# ASSAYED SYSTEM: T1, NPY2R
# T1 sequence (P49146 1-381, species assumed, looked up): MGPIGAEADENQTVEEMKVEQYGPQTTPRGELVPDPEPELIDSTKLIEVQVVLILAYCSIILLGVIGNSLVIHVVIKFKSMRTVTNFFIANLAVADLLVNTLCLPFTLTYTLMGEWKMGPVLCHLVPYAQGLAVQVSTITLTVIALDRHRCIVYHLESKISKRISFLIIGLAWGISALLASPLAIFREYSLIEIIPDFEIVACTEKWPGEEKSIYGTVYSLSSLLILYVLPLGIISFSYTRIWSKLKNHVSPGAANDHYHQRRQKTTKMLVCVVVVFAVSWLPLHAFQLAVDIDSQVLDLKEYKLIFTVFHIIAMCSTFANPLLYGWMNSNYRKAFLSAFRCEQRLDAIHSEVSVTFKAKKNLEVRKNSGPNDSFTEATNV
# EXPERIMENTAL DETAILS: cell-based or functional assay
Starred links: 1 amine or outer side, 2 acyl side, 3 side chain; linkers in the order of their positions; H or OH if unused. Non-standard residues stand in square brackets, D forms with d. Groups on a side chain read outwards from the residue. No end group written: not given here. *: point of attachment. C20 diacid = O=C(O)CCCCCCCCCCCCCCCCCCC(=O)*; C18 diacid = O=C(O)CCCCCCCCCCCCCCCCC(=O)*; γGlu = O=C(O)[C@H](CCC(=O)[*:2])N[*:1]

Field NPY2R pEC50 (entry PKPEAPGK([γGlu-γGlu-C18 diacid])DASPEEWDRYYKDLRHYLNWLTRQRF-NH2 [Compound A32] ) reads 10.8 -Log(EC50, M)

For this binder ( PKPEAPGK([γGlu-γGlu-C20 diacid])DASPEEWQRYYKDLRHYLNWLTRQRF-NH2 [Compound A23] ), measured NPY2R pEC50 is 10.4 -Log(EC50, M)

Form field NPY2R pEC50, entry PKPEAPG[dK]([γGlu-γGlu-C20 diacid])DASPEEWNRYYADLRHYLNWLTRQRF-NH2 [Compound A15] : 10.2 -Log(EC50, M)

Noted for PKPEAPGK([γGlu-γGlu-C20 diacid])DASPEEWSRYYKDLRHYLNWLTRQRF-NH2 [Compound A25] : its NPY2R pEC50 reads 10.9 -Log(EC50, M)

GET /value?item= PKPEAPGK([γGlu-γGlu-C20 diacid])DKSPEEWNRYYKDLRHYLNWLTRQRF-NH2 [Compound A66] &field=NPY2R pEC50 returns 10.3 -Log(EC50, M)

Data provenance: patent US20250084142A1
